From: the MegaScale stability set (Tsuboyama et al. 2023)

B1: EEHEE_rd4_0647 (parent)
chain: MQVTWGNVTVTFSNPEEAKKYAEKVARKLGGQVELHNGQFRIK

Variants of: B1
assay.method.text: folding stability dG (cDNA display proteolysis); higher = more stable
cond: PBS, room temperature
param class (str): category from folding stability dG; see ranges lower: < 2 kcal/mol; middle: ≥ 2 kcal/mol and < 3 kcal/mol; upper: ≥ 3 kcal/mol

Some solved cases for reference:
[
  {
    "mutation.code": "G6N",
    "group.label": "middle"
  },
  {
    "mutation.code": "V25D",
    "group.label": "lower"
  },
  {
    "mutation.code": "Y21M",
    "group.label": "lower"
  },
  {
    "mutation.code": "T11Q",
    "group.label": "middle"
  },
  {
    "mutation.code": "K24W",
    "group.label": "upper"
  },
  {
    "mutation.code": "V33R",
    "group.label": "lower"
  }
]

Bin? R41L
upper

# bin label for I42H
lower

Into which bin does this variant go? G31S
middle

Band for T4E ?
lower
